# target: HLA-A*02:01 molecule (UniProt P01899+P04439, D140Y/D185E/D98H/E176V/G131W/I119V/I121R/I166T/N151K/N90K/Q86G/Q94H/R138H/R169H)
# experiment description: cell-based
# Format: binding, human
# cond: SD
pEC50: −log10 of the molar value. Ends that are not written are not given here.
assay endpoint: pEC50

item sequence	assay endpoint	recorded number
YMPYFFTLL [pp1a-2168]	pEC50	4.00
ALNLGETFV [pp1a-702]	pEC50	4.39
SLIYSTAAL [pp1a-2242]	pEC50	3.87
VMAYITGGV [pp1a-597]	pEC50	5.02
GLVEVEKGV [pp1a-52]	pEC50	4.84
RIMTWLDMV [pp1a-3662]	pEC50	4.12
NLAKHCLHV [pp1a-1109]	pEC50	4.41
VLLSVLQQL [pp1a-3871]	pEC50	4.35
AIFYLITPV [pp1a-2785]	pEC50	5.29
QLSLPVLQV [pp1a-15]	pEC50	4.10
YLASGGQPI [pp1a-4283]	pEC50	4.40
ILGTVSWNL [pp1a-1367]	pEC50	3.91
KLWAQCVQL [pp1a-3886]	pEC50	4.57
SLINTLNDL [pp1a-1433]	pEC50	3.91
YLEGSVRVV [pp1a-2968]	pEC50	5.12
VLSEARQHL [pp1a-38]	pEC50	4.11
KLMPVCVET [pp1a-1387]	pEC50	3.76
SMQNCVLKL [pp1a-3344]	pEC50	3.98
VINGDRWFL [pp1a-3475]	pEC50	4.07
TLSEQLDFI [pp1a-214]	pEC50	5.70
SLRVCVDTV [pp1a-1161]	pEC50	4.07
FLRDGWEIV [pp1a-641]	pEC50	6.05
VMVELVAEL [pp1a-84]	pEC50	5.17
CLHVVGPNV [pp1a-1114]	pEC50	4.20
WLMWLIINL [pp1a-2363]	pEC50	3.99
TVYEKLKPV [pp1a-619]	pEC50	5.25
SLPGVFCGV [pp1a-3013]	pEC50	5.51
ILFTRFFYV [pp1a-2332]	pEC50	4.02
ILTSLLVLV [pp1a-3587]	pEC50	5.08
MLAKALRKV [pp1a-1312]	pEC50	4.02
FLGRYMSAL [pp1a-1642]	pEC50	3.91
QLFFSYFAV [pp1a-2348]	pEC50	3.83
QLMCQPILL [pp1a-2563]	pEC50	4.95
